quantityMeasured: melting point

[
  {
    "compound": "COc1ccc(/C=C(\\C(=O)c2ccc(Cl)cc2)S(=O)(=O)Cc2ccc(Cl)cc2)c(OC)c1OC [Example 375]",
    "melting point": "148 to 151 °C"
  }
]

I would be grateful if you could share the reported melting point for Cc1ccc(CS(=O)(=O)/C(=C/c2ccc(Cl)cc2)C(=O)c2ccc(Cl)cc2)cc1 [Example 434] .
128 to 133 °C

I would be grateful if you could share the reported melting point for COc1ccc(/C=C(\C(=O)c2ccc(Cl)cc2)S(=O)(=O)Cc2ccccc2Cl)cc1 [Example 363] .
195 to 210 °C

I would be grateful if you could share the reported melting point for O=C(/C(=C\c1ccccc1OCc1ccccc1)S(=O)(=O)Cc1ccc(F)cc1)c1ccc(Cl)cc1 [Example 402] .
139 to 145 °C

I would be grateful if you could share the reported melting point for CCOc1ccc(/C=C(\C(=O)c2ccc(Cl)cc2)S(=O)(=O)Cc2ccc(F)cc2)cc1OC [Example 412] .
145 to 149 °C

I would be grateful if you could share the reported melting point for Cc1ccsc1/C=C(\C(=O)c1ccc(Cl)cc1)S(=O)(=O)Cc1ccc(Cl)cc1 [Example 388] .
130 to 139 °C
